studySystem: EGVD/AE-ACT
experimentDescription: reaction of the protease with the serpin bait EGVD/AE-ACT

binder: chymase C22S/L99H/F173I/K192R/Y215K/R217T/S218I/A226R (enzyme) IIGGTESKPHSRPYMAYLEIVTSNGPSKFCGGFLIRRNFVLTAAHCAGRSITVTLGAHNITEEEDTWQKLEVIKQFRHPKYNTSTHHHDIMLLKLKEKASLTLAVGTLPFPSQFNFVPPGRMCRVAGWGRTGVLKPGSDTLQEVKLRLMDPQACSHIRDFDHNLQLCVGNPRKTKSAFRGDSGGPLLCAGVAQGIVSKGTIDAKPPRVFTRISHYRPWINQILQAN
k*app (second order rate constant): 1040

binder: chymase C22S/F41V/L99F/G151R/F173K/R217S/A226R (enzyme) IIGGTESKPHSRPYMAYLEIVTSNGPSKVCGGFLIRRNFVLTAAHCAGRSITVTLGAHNITEEEDTWQKLEVIKQFRHPKYNTSTFHHDIMLLKLKEKASLTLAVGTLPFPSQFNFVPPGRMCRVAGWGRTGVLKPRSDTLQEVKLRLMDPQACSHKRDFDHNLQLCVGNPRKTKSAFKGDSGGPLLCAGVAQGIVSYGSSDAKPPRVFTRISHYRPWINQILQAN
k*app (second order rate constant): 652

binder: chymase C22S/F41V/L99H/G151R/F173L/Y215R/R217T/A226R (enzyme) IIGGTESKPHSRPYMAYLEIVTSNGPSKVCGGFLIRRNFVLTAAHCAGRSITVTLGAHNITEEEDTWQKLEVIKQFRHPKYNTSTHHHDIMLLKLKEKASLTLAVGTLPFPSQFNFVPPGRMCRVAGWGRTGVLKPRSDTLQEVKLRLMDPQACSHLRDFDHNLQLCVGNPRKTKSAFKGDSGGPLLCAGVAQGIVSRGTSDAKPPRVFTRISHYRPWINQILQAN
k*app (second order rate constant): 1130
